Where do the numbers come from? From patent US20250090680A1.

Target: recombinant hGPC3-His (human) (UniProt P51654)
Test: Biacore SPR, antibody captured, hGPC3-His analyte, 1:1 model
Each entry below lists one item and its recorded pKd value.
pKd (log units): -log10 of the concentration in mol/L.

{"BINDER": "P1-A1 IgG variant of ARD-103 (antibody, V domains shown) VH: QVQLVESGAEVKKPGASVKVSCKASGYTFTDYEMHWVRQAPGQGLEWMGALDPKTGDTAYSQKFQGRVTLTADKSTSTAYMELSSLTSEDTAVYYCTRFYSYTYWGQGTLVTVSS VL: DVVMTQSPLSLPVTPGEPASISCRSSQSLVRSNGNTYLHWYLQKPGQSPQLLIYKVSNRFSGVPDRFSGSGSGTDFTLKISRVEAEDVGVYYCVQNTHVPPTFGQGTKLEIKR", "pKd": 8.81}

Now for another entry.
[in] Entry P3-A1 IgG variant of ARD-103 (antibody, V domains shown) VH: QVQLVESGAEVKKPGASVKVSCKASGYTFTDYEMHWVRQAPGQGLEWMGALDPSTGDTAYSQKFKGRVTLTADKSTSTAYMELSSLTSEDTAVYYCTRFYSYTYWGQGTLVTVSS VL: DVVMTQSPLSLPVTPGEPASISCRSSQSLVHWNGNTYLHWYLQKPGQSPQLLIYKVSNRFSGVPDRFSGSGSGTDFTLKISRVEAEDVGVYYCAQNTHVPPTFGQGTKLEIKR has what pKd?
[out] 8.62
